# Experimental system: T1, EsCas13d, nuclease-dead (Eubacterium siraeum, UniProt B0MS50, R295A;H300A;R849A;H854A)
# T1 sequence: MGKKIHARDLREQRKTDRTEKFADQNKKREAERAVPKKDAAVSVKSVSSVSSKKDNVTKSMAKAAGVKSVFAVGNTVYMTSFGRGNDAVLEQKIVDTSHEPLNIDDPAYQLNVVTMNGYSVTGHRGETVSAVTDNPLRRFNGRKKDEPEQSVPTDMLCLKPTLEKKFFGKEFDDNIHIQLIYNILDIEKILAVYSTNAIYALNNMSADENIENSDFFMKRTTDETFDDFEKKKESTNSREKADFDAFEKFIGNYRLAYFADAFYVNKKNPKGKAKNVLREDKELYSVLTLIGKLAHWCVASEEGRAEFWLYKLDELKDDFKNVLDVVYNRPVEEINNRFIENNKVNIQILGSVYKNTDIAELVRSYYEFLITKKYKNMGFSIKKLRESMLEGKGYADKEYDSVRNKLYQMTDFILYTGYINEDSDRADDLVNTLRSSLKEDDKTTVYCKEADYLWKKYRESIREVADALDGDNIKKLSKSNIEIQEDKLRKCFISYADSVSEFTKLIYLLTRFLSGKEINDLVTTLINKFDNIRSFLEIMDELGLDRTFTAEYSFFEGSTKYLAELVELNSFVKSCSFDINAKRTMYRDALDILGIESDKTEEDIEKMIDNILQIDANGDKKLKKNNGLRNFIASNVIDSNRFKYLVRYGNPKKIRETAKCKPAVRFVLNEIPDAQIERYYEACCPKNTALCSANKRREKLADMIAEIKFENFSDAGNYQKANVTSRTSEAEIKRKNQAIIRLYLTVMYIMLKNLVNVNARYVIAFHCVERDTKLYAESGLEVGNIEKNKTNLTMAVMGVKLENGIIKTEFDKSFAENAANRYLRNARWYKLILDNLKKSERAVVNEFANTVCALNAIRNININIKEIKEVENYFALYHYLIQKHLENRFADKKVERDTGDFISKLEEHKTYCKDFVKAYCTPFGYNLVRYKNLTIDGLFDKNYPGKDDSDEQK
# Protocol summary: crRNA (strand 1, pre-loaded); Mg2+; 40 mM Tris-HCl pH 7.5, 150 mM NaCl, 6 mM MgCl2, 1 mM DTT, 0.1% Tween-20, 0.2 mg/ml BSA; 25 C; 10 min per concentration, then washed
# Recorded conditions: tags: His6-TwinStrep-SUMO cleaved; N-terminal SNAP kept (SNAP-Surface 488); label: 3' end held by stalled T7 RNA polymerase
pKd: −log10 of the molar value.
Label 1 for high-side pKd (at or above 8) and -1 for low-side pKd (below it).

Binder: target 3 insG 3' of 7,insC 3' of 4 (mixed) RNA 1: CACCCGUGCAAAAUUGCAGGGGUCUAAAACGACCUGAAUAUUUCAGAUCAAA RNA 2: GGGAAUGGAUCCACAUCUACGAAUUCGUUUUUGAUCUGAAAUAUUGCAGCGUCUGCAGAUCGGAAGAGCACACGU
Group: -1

Binder: target 1 A1G,U3G (mixed) RNA 1: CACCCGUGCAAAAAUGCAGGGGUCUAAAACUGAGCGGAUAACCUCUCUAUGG RNA 2: GGGAAUGGAUCCACAUCUACGAAUUCGUACCAUAGAGAGGUUAUCCGCGCGCCGAGAUCGGAAGAGCACACGU
Group: 1

Binder: target 1 MT 5'PFS AAU 3'PFS UUC (mixed) RNA 1: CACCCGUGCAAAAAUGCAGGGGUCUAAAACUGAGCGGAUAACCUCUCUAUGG RNA 2: GGGAAUGGAUCCACAUCUACGAAUUCAAUCCAUAGAGAGGUUAUCCGCUCAUUCAGAUCGGAAGAGCACACGU
Group: -1

Binder: target 1 MT 5'PFS UUG 3'PFS UUA (mixed) RNA 1: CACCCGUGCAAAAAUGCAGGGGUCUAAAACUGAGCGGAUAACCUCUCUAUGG RNA 2: GGGAAUGGAUCCACAUCUACGAAUUCUUGCCAUAGAGAGGUUAUCCGCUCAUUAAGAUCGGAAGAGCACACGU
Group: -1

Binder: target 1 insU 3' of 17,insU 3' of 16 (mixed) RNA 1: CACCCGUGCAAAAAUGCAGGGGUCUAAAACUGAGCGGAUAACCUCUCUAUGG RNA 2: GGGAAUGGAUCCACAUCUACGAAUUCGUACCAUAGUAUGAGGUUAUCCGCUCACCGAGAUCGGAAGAGCACACGU
Group: -1
